Target: human GR (Homo sapiens, UniProt P04150)
Sequence (P04150 1-777): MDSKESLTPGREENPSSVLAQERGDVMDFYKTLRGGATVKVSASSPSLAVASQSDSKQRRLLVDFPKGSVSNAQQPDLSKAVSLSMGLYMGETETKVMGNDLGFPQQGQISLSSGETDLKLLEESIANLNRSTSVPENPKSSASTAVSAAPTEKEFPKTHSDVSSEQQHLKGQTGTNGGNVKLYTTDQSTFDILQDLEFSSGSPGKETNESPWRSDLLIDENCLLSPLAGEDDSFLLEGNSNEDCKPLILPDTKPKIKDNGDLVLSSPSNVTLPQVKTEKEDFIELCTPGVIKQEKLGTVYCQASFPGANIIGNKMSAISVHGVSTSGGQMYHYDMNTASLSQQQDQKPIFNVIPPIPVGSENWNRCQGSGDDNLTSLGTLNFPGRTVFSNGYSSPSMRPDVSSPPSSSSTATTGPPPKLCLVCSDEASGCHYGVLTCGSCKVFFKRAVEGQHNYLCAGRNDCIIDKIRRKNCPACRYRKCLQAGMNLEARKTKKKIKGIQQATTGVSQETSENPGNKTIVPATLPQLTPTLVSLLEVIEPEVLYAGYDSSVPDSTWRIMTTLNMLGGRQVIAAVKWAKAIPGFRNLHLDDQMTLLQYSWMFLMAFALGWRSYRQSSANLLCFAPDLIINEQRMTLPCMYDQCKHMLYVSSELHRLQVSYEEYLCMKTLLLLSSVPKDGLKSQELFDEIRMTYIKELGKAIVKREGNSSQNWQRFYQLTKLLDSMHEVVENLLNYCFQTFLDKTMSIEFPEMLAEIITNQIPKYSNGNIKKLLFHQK
Assay: Transrepression Assay (GITAR), TNFα-β-lactamase reporter in U937 cells
Assay type: cell-based
Set-up: U937 cells contain an endogenous glucocorticoid receptor (GR); endogenous in cells; host or cells: U937 cells stably transfected with the TNF-alpha promoter/beta-lactamase reporter
Settings: GITAR Emax minus GRAMMER Emax
Returns one of t or f; t when GITAR > GRAMM % SEP is >= 30%.

>  <Molecule>
C[C@]12Cc3cnn(-c4ccc(F)cc4)c3C=C1CC[C@@H]2CN(CC#N)S(=O)(=O)c1ccc(-c2ccccc2)cc1

>  <Category label>
f

$$$$
>  <Molecule>
C[C@]12Cc3cnn(-c4ccc(F)cc4)c3C=C1CC[C@@H]2CN(CC(O)C(F)F)S(=O)(=O)Cc1cccnc1 (stereo partly shown)

>  <Category label>
t

$$$$
>  <Molecule>
CCS(=O)(=O)N(CCOC)C[C@H]1CCC2=Cc3c(cnn3-c3ccc(F)cc3)C[C@@]21C

>  <Category label>
f

$$$$
>  <Molecule>
CCCCCCCCS(=O)(=O)N(CCc1ccccc1F)C[C@H]1CCC2=Cc3c(cnn3-c3ccc(F)cc3)C[C@@]21C

>  <Category label>
f

$$$$
>  <Molecule>
C[C@]12Cc3cnn(-c4ccc(F)cc4)c3C=C1CC[C@@H]2CN(CCc1ccccn1)S(=O)(=O)Cc1ccccc1C(N)=O

>  <Category label>
f

$$$$
>  <Molecule>
C[C@]12Cc3cnn(-c4ccc(F)cc4)c3C=C1CC[C@@H]2CN(CCO)S(=O)(=O)c1ccccc1C(N)=O

>  <Category label>
f

$$$$

---

Item-by-item account of EC50
Biological target: human GR (Homo sapiens, UniProt P04150)
Sequence (P04150 1-777): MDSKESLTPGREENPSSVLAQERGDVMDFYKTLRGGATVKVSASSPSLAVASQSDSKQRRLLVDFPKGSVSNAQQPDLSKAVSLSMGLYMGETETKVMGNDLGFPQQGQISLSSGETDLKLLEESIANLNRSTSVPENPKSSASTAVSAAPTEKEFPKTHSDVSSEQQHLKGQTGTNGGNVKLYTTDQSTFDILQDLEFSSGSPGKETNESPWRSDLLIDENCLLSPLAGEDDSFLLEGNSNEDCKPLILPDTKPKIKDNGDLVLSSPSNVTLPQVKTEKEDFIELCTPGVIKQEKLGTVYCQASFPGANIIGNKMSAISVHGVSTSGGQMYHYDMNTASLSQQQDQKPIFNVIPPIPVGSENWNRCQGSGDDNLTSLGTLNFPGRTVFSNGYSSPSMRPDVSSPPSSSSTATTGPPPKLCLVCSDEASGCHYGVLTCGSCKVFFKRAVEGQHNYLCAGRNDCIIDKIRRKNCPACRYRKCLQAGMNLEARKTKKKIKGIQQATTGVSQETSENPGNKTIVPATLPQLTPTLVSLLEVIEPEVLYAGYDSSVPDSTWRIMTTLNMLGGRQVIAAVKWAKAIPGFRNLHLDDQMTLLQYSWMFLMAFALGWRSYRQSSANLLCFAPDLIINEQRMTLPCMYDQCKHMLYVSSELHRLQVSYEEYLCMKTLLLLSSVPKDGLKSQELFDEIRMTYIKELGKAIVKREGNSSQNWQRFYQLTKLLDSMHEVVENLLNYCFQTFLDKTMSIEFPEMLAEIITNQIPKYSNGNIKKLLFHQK
Experiment: Trans-Activation Modulation of Glucocorticoid Receptor (GRAMMER), MMTV-LUC reporter, agonist mode
Type: cell-based
Parameters: endogenous in cells
Details: A549 cells; inflection point; read-out: Transactivation A549 Cells GRAMMER IP

>  <Compound>
COc1ccccc1CCN(C[C@H]1CCC2=Cc3c(cnn3-c3ccc(F)cc3)C[C@@]21C)S(=O)(=O)Cc1cccnc1

>  <EC50>
508 nM

$$$$
>  <Compound>
C[C@]12Cc3cnn(-c4ccc(F)cc4)c3C=C1CC[C@@H]2CN(CC#N)S(=O)(=O)c1cccc2ccccc12

>  <EC50>
82.8 nM

$$$$
>  <Compound>
Cn1cnc(S(=O)(=O)N(CC#N)C[C@H]2CCC3=Cc4c(cnn4-c4ccc(F)cc4)C[C@@]32C)c1

>  <EC50>
2190 nM

$$$$
>  <Compound>
Cc1cc(S(=O)(=O)N(CC#N)C[C@H]2CCC3=Cc4c(cnn4-c4ccc(F)cc4)C[C@@]32C)c(C)cc1Cl

>  <EC50>
1710 nM

$$$$
>  <Compound>
Cc1cc(S(=O)(=O)N(CC#N)C[C@H]2CCC3=Cc4c(cnn4-c4ccc(F)cc4)C[C@@]32C)c(C)o1

>  <EC50>
1050 nM

$$$$
>  <Compound>
Cn1cc(S(=O)(=O)N(CCc2ccccn2)C[C@H]2CCC3=Cc4c(cnn4-c4ccc(F)cc4)C[C@@]32C)c(C(F)(F)F)n1

>  <EC50>
346 nM

$$$$
>  <Compound>
CC(C)CS(=O)(=O)N(CCc1ccccc1F)C[C@H]1CCC2=Cc3c(cnn3-c3ccc(F)cc3)C[C@@]21C

>  <EC50>
367 nM

$$$$
>  <Compound>
COC(=O)c1cc(Cl)ccc1CCN(C[C@H]1CCC2=Cc3c(cnn3-c3ccc(F)cc3)C[C@@]21C)S(=O)(=O)CC(F)(F)F

>  <EC50>
547 nM

$$$$
>  <Compound>
C[C@]12Cc3cnn(-c4ccc(F)cc4)c3C=C1CC[C@@H]2CN(CC(O)C(F)(F)F)S(=O)(=O)Cc1ccccc1C(N)=O (some centres unmarked)

>  <EC50>
150 nM

$$$$
>  <Compound>
C[C@]12Cc3cnn(-c4ccc(F)cc4)c3C=C1CC[C@@H]2CN(CCc1ccccn1)S(=O)(=O)Cc1ccccc1C(F)(F)F

>  <EC50>
315 nM

$$$$
>  <Compound>
C[C@]12Cc3cnn(-c4ccc(F)cc4)c3C=C1CC[C@@H]2CN(CC(O)c1ccccn1)S(=O)(=O)CC(F)(F)F (some centres unmarked)

>  <EC50>
123 nM

$$$$
>  <Compound>
C[C@]12Cc3cnn(-c4ccc(F)cc4)c3C=C1CC[C@@H]2CN(CC1CC1)S(=O)(=O)Cc1ccccc1

>  <EC50>
519 nM

$$$$
>  <Compound>
C[C@]12Cc3cnn(-c4ccc(F)cc4)c3C=C1CC[C@@H]2CN(CC(O)c1ccncc1)S(=O)(=O)CC(F)(F)F (some centres unmarked)

>  <EC50>
397 nM

$$$$
>  <Compound>
C[C@]12Cc3cnn(-c4ccc(F)cc4)c3C=C1CC[C@@H]2CN(CCc1ccccn1)S(=O)(=O)CC(F)(F)F

>  <EC50>
252 nM

$$$$
